# TESTED TARGET: BaF3-WT cells (Homo sapiens, UniProt P00533)
# Sequence (P00533 whole entry, change not shown): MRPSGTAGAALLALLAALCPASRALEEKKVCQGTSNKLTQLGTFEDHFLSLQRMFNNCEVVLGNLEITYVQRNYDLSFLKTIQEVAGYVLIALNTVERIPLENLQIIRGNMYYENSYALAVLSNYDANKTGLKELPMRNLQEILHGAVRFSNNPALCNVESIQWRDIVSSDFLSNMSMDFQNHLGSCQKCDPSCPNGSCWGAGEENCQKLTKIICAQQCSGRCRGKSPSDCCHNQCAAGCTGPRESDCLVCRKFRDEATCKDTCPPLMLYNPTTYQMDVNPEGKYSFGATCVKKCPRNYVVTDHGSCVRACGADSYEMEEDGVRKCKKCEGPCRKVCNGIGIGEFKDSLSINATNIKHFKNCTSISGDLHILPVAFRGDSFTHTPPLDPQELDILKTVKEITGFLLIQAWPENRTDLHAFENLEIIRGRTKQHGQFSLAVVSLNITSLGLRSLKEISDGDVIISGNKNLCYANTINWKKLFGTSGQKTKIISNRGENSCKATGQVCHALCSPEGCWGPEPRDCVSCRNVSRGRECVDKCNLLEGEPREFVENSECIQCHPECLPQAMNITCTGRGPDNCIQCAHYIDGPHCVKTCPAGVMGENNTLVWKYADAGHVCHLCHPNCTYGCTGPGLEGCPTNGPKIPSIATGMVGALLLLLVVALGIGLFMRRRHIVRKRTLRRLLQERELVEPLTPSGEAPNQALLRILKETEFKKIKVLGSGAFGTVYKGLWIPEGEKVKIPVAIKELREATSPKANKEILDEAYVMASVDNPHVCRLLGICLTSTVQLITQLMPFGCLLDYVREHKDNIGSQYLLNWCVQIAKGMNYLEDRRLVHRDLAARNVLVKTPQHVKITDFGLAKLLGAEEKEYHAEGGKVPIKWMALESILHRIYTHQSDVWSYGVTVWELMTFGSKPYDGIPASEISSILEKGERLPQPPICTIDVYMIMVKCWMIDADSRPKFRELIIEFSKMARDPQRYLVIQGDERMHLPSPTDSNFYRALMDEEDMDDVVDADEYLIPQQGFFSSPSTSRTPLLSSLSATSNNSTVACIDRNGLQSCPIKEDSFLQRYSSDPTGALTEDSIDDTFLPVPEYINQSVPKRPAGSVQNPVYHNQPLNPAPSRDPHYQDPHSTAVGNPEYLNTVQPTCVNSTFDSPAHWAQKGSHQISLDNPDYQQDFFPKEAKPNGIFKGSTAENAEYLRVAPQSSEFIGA
# PROTOCOL: Cell antiproliferation assay (CellTiter-Glo), BaF3-WT
# Format: cell-based
# EXPERIMENTAL SETUP: 48 h treatment, read-out: BaF3-WT IC50
# Method: BaF3 cells are treated with compounds diluted in 0.2% DMSO, dilution is done according to the following protocol: (1) make 500× stock solution in DMSO from 5 mM by 5-fold dilution, total 8 doses were included; (2) make 10× solution in cell culture medium by transferring 2 μl 500× stock solution into 98 μl medium; (3) 10 μl of 10× solution is added to cells and incubate for 48 h. […]
VALUE KIND: GI50 (nM)
Form entry: value (nM) — number only.

Prompt: Which GI50 is listed for `COc1cc(N2CCC(N3CCN(C)CC3)CC2)ccc1Nc1ncc(Cl)c(Nc2cccc3c2N(S(=O)(=O)CCc2ccccc2)CC3)n1` ?
Response: 1860

Prompt: Repeat for the following compound: `COc1cc(N2CCC(N3CCN(C)CC3)CC2)ccc1Nc1ncc(C)c(Nc2cccc3c2N(S(C)(=O)=O)CC3)n1`
Response: 604

Prompt: Request: `CN(C)C1CCN(c2ccc(Nc3ncc(Br)c(Nc4cccc5c4N(S(C)(=O)=O)CC5)n3)c3c2OCO3)CC1`
Response: 145

Prompt: Another compound: `CN1CCN(c2ccc(Nc3nc(Nc4cccc5c4N(S(C)(=O)=O)CC5)c4cc[nH]c4n3)cn2)CC1`
Response: 376

Prompt: Also `CN(C)C1CCN(c2ccc(Nc3ncc(Cl)c(Nc4cccc5c4N(S(C)(=O)=O)CC5)n3)c3c2OCO3)CC1` , if possible.
Response: 235

Prompt: And what about the compound `COc1cc(N2CCC(N3CCN(C)CC3)CC2)ccc1Nc1nc2c(c(Nc3cccc4c3N(S(C)(=O)=O)CC4)n1)CCC2` ?
Response: 2350

Prompt: What about `COc1cc(N2C[C@H]3CN(C)C[C@H]3C2)c(C)cc1Nc1nc(Nc2cccc3c2N(S(C)(=O)=O)CC3)c2cc[nH]c2n1` ?
Response: 1710
